System: VDR:RXRa (NR concentration 270 nM, RXRa partner concentration 90 nM)
measurement-protocol: PBM binding z-score (relative to random genomic background probes); higher = stronger binding; sequences stand for … in GC…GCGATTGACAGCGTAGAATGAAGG
Threshold rule: PBM binding z-score greater than or equal to 1 is true; below that, false.

Illustrative cases are given below, each with its answer.
>  <residue-string>
CAAACTAGGTCAAGAGGTCAAAATCCGCTTCCCG

>  <class-assignment>
true

$$$$
>  <residue-string>
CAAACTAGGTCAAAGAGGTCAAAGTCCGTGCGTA

>  <class-assignment>
true

$$$$
>  <residue-string>
GCTATTAGTTGAAAGGGCAACTGAATGATTCTCG

>  <class-assignment>
false

$$$$
>  <residue-string>
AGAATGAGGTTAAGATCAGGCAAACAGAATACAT

>  <class-assignment>
true

$$$$
>  <residue-string>
TCTCGTAGGACACGAAGGTCAGAGCTTTCCAGAG

>  <class-assignment>
true

$$$$

Next item in the queue.
For this sequence, is measured PBM binding z-score 1 or higher? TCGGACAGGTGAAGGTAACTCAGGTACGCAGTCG
false

###

Test system: RARg homodimer (NR concentration 270 nM)
measurement-protocol: PBM binding z-score (relative to random genomic background probes); higher = stronger binding; sequences stand for … in GC…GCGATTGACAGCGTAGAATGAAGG
Reported PBM binding z-score values for the following sequences.
// return a plain number; no unit text

>  <residue-string>
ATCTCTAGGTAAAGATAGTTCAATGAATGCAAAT

>  <PBM binding z-score>
1.05

$$$$
>  <residue-string>
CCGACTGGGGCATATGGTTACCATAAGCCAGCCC

>  <PBM binding z-score>
0.046

$$$$
>  <residue-string>
CGTCAAAGTTCAACTAAGCTAACGTAAAGCACGC

>  <PBM binding z-score>
6.59

$$$$
>  <residue-string>
ACTAGTTGGTCAGCTGAGGTCACAGACAATTCGG

>  <PBM binding z-score>
3.84

$$$$
>  <residue-string>
ACAGACATGTGATGAAGGTAACTCAGGCTATCAT

>  <PBM binding z-score>
0.176

$$$$
>  <residue-string>
CAGCCTAGGTCAGTGCCAGTATAGGAGGAACGTT

>  <PBM binding z-score>
3.53

$$$$
>  <residue-string>
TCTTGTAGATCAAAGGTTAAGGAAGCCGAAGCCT

>  <PBM binding z-score>
0.852

$$$$

For the sequence shown here, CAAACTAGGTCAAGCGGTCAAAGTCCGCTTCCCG , give the reported PBM binding z-score.
6.19

###

System: LXRb:RXRa (NR concentration 270 nM, RXRa partner concentration 90 nM)
measurement-protocol: PBM binding z-score (relative to random genomic background probes); higher = stronger binding; sequences stand for … in GC…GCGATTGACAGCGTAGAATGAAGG
measurement-type: PBM binding z-score
// no unit string in output, number only

Some solved cases for reference:
>  <residue-string>
GCTGCTAGGTGAGGTTGGTCAGCTAACGGGTACG

>  <measurement-type>
PBM binding z-score

>  <value-observed>
-0.672

$$$$
>  <residue-string>
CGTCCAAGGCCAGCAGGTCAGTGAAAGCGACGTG

>  <measurement-type>
PBM binding z-score

>  <value-observed>
-0.00321

$$$$
>  <residue-string>
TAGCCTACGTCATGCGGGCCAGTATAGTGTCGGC

>  <measurement-type>
PBM binding z-score

>  <value-observed>
-1.15

$$$$

Let's switch to this sequence now.
For CGTGCAAGGTCATAGGAGGTCAGTGAAGACAGAT , what is its reported PBM binding z-score?
6.31

###

System: PXR homodimer (NR concentration 270 nM)
measurement-protocol: PBM binding z-score (relative to random genomic background probes); higher = stronger binding; sequences stand for … in GC…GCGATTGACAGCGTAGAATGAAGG
Outcome label depends on PBM binding z-score relative to 0.2: at/above gives Yes, below gives No.

In plain terms: is recorded PBM binding z-score at least 0.2 for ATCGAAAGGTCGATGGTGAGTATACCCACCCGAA ?
No

###

PBM binding z-score values, listed per item
Test system: PPARg:RXRa 270nM:90nM, anti-RXR (NR concentration 270 nM, RXRa partner concentration 90 nM)
measurement-protocol: PBM binding z-score (relative to random genomic background probes); higher = stronger binding; sequences stand for … in GC…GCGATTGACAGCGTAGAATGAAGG
// no unit, no text: just the number

So what's the measured PBM binding z-score for this one? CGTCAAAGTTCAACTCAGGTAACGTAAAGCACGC
5.43

May I ask what PBM binding z-score has been recorded for TCTTGTAGATCAGCCGGTTAAGAAAGCTGGCCAA ?
1.24

Consider the sequence shown here: CCGACTGGGGAAGAAAGGTTACCATACCATCCGG What is its recorded PBM binding z-score?
3.17

Entry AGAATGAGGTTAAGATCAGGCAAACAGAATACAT has what PBM binding z-score?
2.38

Entry under review: CCTGCCAGGTCATGGTCAGCTAATCTACAGTATG . Reported PBM binding z-score?
2.5

###

Test system: FXR:RXRa (NR concentration 270 nM, RXRa partner concentration 90 nM)
measurement-protocol: PBM binding z-score (relative to random genomic background probes); higher = stronger binding; sequences stand for … in GC…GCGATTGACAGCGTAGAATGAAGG
measurement-type: PBM binding z-score
Lab note: jot the number down without any unit.

Here's what some known entries look like.
>  <residue-string>
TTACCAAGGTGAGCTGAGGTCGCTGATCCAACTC

>  <measurement-type>
PBM binding z-score

>  <value-observed>
1.17

$$$$
>  <residue-string>
GATACAGGGTCAAGGCGAGAGTACGCGTATTGAT

>  <measurement-type>
PBM binding z-score

>  <value-observed>
6.79

$$$$
>  <residue-string>
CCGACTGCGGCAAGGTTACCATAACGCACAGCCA

>  <measurement-type>
PBM binding z-score

>  <value-observed>
0.311

$$$$
>  <residue-string>
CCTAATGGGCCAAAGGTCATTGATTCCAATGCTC

>  <measurement-type>
PBM binding z-score

>  <value-observed>
5.18

$$$$
>  <residue-string>
TCTCGGAGGACACGACGGTCAGAGCTTTCCAGAG

>  <measurement-type>
PBM binding z-score

>  <value-observed>
0.205

$$$$
>  <residue-string>
TAGCCTAGCTCATTGGGCCAGTATAGTACGCATC

>  <measurement-type>
PBM binding z-score

>  <value-observed>
-0.7

$$$$
>  <residue-string>
AGGCAAAGTTCAGGACGAGGTAACGTAAAGCACG

>  <measurement-type>
PBM binding z-score

>  <value-observed>
4.22

$$$$
>  <residue-string>
ACTAGCAGGCTAAGTTTGGGTCACTCAAACAAAG

>  <measurement-type>
PBM binding z-score

>  <value-observed>
-0.0373

$$$$

We now examine a further sequence.
Suppose we examine the sequence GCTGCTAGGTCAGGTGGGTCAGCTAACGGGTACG ; what PBM binding z-score value has been reported?
1.62

###

# PBM binding z-score per entry
System: PPARa:RXRa (NR concentration 270 nM, RXRa partner concentration 90 nM)
measurement-protocol: PBM binding z-score (relative to random genomic background probes); higher = stronger binding; sequences stand for … in GC…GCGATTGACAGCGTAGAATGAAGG
Keep it simple and answer with nothing but the number.

Solved entries (count: 2):
>  <residue-string>
CCTACAGGGCCATCAGGTCATTGATATCAACGTT

>  <value-observed>
2

$$$$
>  <residue-string>
CAGCCTAGGTCAGGGCCACTATAGGAGGAACGTT

>  <value-observed>
2.18

$$$$

Value lookup for PBM binding z-score; key = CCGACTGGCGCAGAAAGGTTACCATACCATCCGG
1.8

// PBM binding z-score lookup, key: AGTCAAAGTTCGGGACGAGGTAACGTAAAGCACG
1.08

I am curious: what PBM binding z-score value has been reported for CCGACTGGGGCATAAGGTTACTATAAGCCAGCCC ?
1.63

Tell me the measured PBM binding z-score of TCATATAGGTAATACATGTGAAAGTCGGCATCTA , please.
1.43

Value lookup for PBM binding z-score; key = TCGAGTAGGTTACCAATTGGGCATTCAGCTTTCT
0.973

GET /values?readout=PBM binding z-score&item= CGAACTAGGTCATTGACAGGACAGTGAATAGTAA
4.67

PBM binding z-score for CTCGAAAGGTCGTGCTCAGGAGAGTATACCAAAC ?
4.7

###

Tested on: LXRb:RXRa (NR concentration 270 nM, RXRa partner concentration 90 nM)
measurement-protocol: PBM binding z-score (relative to random genomic background probes); higher = stronger binding; sequences stand for … in GC…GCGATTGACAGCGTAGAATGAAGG
measurement-type: PBM binding z-score
Just the number.

Study these solved cases before continuing.
>  <residue-string>
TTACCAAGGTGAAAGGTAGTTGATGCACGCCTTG

>  <system-name>
LXRb:RXRa (NR concentration 270 nM, RXRa partner concentration 90 nM)

>  <PBM binding z-score>
0.456

$$$$
>  <residue-string>
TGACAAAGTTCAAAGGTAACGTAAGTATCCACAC

>  <system-name>
LXRb:RXRa (NR concentration 270 nM, RXRa partner concentration 90 nM)

>  <PBM binding z-score>
4.68

$$$$

Entry CCAGATAGGTGAAAGGTAACTCAGTCTGGTACGC : reported PBM binding z-score = ?
1.14
